target: M4 muscarinic receptor (Homo sapiens); construct: expressed in transfected cells; host or cells: NIH-3T3 cells (ATCC CRL 1658); assay: R-SAT functional assay, muscarinic M4 receptor; type: cell-based; conditions: R-SAT, transfected NIH-3T3 cells; read-out: M4 pEC50 (converted)
Collected log10(EC50) values appear next to each entry.
Scale type: logarithmic (base 10). Underlying EC50 unit: nM.

Examples with answers:
                                   compound  endpoint_value
0  CCCC=C1CCN(CCCn2c(=O)[nH]c3ccccc32)CC1 [Compound 61KS-12]            1.90
1  CCCCC=C1CCN(CCCn2c(=O)[nH]c3ccccc32)CC1 [Compound 61KS-13]            1.60
2  CCCCC1CCN(C[C@@H](C)Cn2c(=O)sc3ccccc32)CC1 [Compound 85LM91-78R]            2.90
3  CC(C)CC=C1CCN(CCCn2c(=O)[nH]c3ccccc32)CC1 [Compound 45NK-70]            1.90
4  CCCCC1CCN(CCCn2c(=O)oc3ccc(F)cc32)CC1 [Compound 86KK22-K]            3.10
5  CCCCCC1CCN(CCCn2c(=O)[nH]c3ccccc32)CC1 [Compound 45NK-71]            2.40
6  CCCCC1CCN(CCCn2c(=O)sc3ccccc32)CC1 [Compound 62KK040d]            2.60
7  CCCCC1CCN(CCCn2c(=O)oc3ccc(C)cc32)CC1 [Compound 86KKM25-d]            2.90
8  CCCCC1CCN(CC(C)Cn2c(=O)sc3ccccc32)CC1 (stereo not drawn) [Compound 85LM14]            3.20
9  CCCCC1CCN(CCCn2c(=O)n(C)c3ccccc32)CC1 [Compound 45NK-110]            3.10

Challenge: Output measured log10(EC50) for this item: CCCCC1CCN(CCCn2c(=O)[nH]c3ccccc32)CC1 [Compound 61KS-19]
Response given: 1.50

Challenge: Output measured log10(EC50) for this item: CCCOC1CCN(CCCn2c(=O)sc3ccccc32)CC1 [Compound 61KS70-1]
Response given: 2.90

----------
Collected Emax values appear next to each entry.
target: M4 muscarinic receptor (Homo sapiens, UniProt P08173); construct: expressed in transfected cells; host or cells: NIH-3T3 cells (ATCC CRL 1658); experiment: R-SAT functional assay, muscarinic M4 receptor; format: cell-based; conditions: NIH3T3; R-SAT, transfected NIH-3T3 cells, relative to maximum response to carbachol; read-out: M4 % Efficacy
Sequence (P08173 whole entry): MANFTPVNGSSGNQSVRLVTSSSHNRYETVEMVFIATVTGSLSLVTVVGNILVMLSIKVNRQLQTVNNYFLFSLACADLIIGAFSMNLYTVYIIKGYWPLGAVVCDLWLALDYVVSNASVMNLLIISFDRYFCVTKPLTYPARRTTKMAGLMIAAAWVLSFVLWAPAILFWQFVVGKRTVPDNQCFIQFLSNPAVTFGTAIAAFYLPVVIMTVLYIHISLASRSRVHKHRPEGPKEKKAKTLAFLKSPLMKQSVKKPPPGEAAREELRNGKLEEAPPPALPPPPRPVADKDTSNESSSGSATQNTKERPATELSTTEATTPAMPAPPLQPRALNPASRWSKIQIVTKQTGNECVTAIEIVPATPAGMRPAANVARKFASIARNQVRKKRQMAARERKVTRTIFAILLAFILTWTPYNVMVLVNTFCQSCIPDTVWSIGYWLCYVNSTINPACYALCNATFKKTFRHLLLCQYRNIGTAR
Form entry: value (%) — number only.

Examples with answers:
In [3]: df
Out[3]:
                                   molecule  result_type  unit_of_measure  endpoint_value
0  CCCCCC1CCN(CCCn2c(=O)[nH]c3ccccc32)CC1 [Compound 45NK-71]         Emax                %              49
1  CCCCC1CCN(C[C@@H](C)Cn2c(=O)sc3ccccc32)CC1 [Compound 85LM91-78R]         Emax                %             141

Challenge: Output measured Emax for this item: CCCCC1CCN(CCCn2c(=O)n(C)c3ccccc32)CC1 [Compound 45NK-110]
Response given: 61

Challenge: Output measured Emax for this item: CCCCC1CCN(CCCn2c(=O)oc3ccc(C)cc32)CC1
Response given: 63

Challenge: Output measured Emax for this item: CC(C)CC=C1CCN(CCCn2c(=O)[nH]c3ccccc32)CC1 [Compound 45NK-70]
Response given: 40
